This section presents compounds with their documented Bioaccessibility (%), initial solution (IS) values.
test: In vitro simulated gastrointestinal digestion (SGD, INFOGEST 2.0): concentration and bioaccessibility by UHPLC-DAD-MSn; conditions: samples; initial solution, reference
property_measured: Bioaccessibility (%), initial solution (IS)

compound	val
C[C@@H]1O[C@@H](OC[C@H]2O[C@@H](Oc3c(-c4ccc(O)c(O)c4)oc4cc(O)cc(O)c4c3=O)[C@H](O)[C@@H](O)[C@@H]2O)[C@H](O)[C@H](O)[C@H]1O [RUT, rutin]	100^ a %
O=c1c(O)c(-c2ccc(O)c(O)c2)oc2cc(O)cc(O)c12 [QUE, quercetin]	100^ a %
Oc1cc(O)cc(O)c1 [PG, phloroglucinol]	100^ b %
O=C(O[C@@H]1Cc2c(O)cc(O)cc2O[C@@H]1c1cc(O)c(O)c(O)c1)c1cc(O)c(O)c(O)c1 [EGCG, epigallocatechin-3-O-gallate]	100^ a %

* * *

// reported Concentration, intestinal phase (I) for each item listed
experiment: In vitro simulated gastrointestinal digestion (SGD, INFOGEST 2.0): concentration and bioaccessibility by UHPLC-DAD-MSn; conditions: samples with enzymes; after intestinal digestion pH 7.0
property_measured: Concentration, intestinal phase (I) (µg/mL)

molecule	val
C[C@@H]1O[C@@H](OC[C@H]2O[C@@H](Oc3c(-c4ccc(O)c(O)c4)oc4cc(O)cc(O)c4c3=O)[C@H](O)[C@@H](O)[C@@H]2O)[C@H](O)[C@H](O)[C@H]1O [RUT, rutin]	265.68
O=C(CCc1ccc(O)cc1)c1c(O)cc(O)cc1O [PH, phloretin]	148.67
O=C(O[C@@H]1Cc2c(O)cc(O)cc2O[C@@H]1c1cc(O)c(O)c(O)c1)c1cc(O)c(O)c(O)c1 [EGCG, epigallocatechin-3-O-gallate]	312.22
O=c1c(-c2ccc(O)cc2)coc2cc(O)ccc12 [DAID, daidzein]	28.72
O=c1oc2c(O)c(O)cc3c(=O)oc4c(O)c(O)cc1c4c23 [EA, ellagic acid]	5.20
O=c1c(O)c(-c2ccc(O)c(O)c2)oc2cc(O)cc(O)c12 [QUE, quercetin]	7.33
O=c1cc(-c2ccc(O)cc2)oc2cc(O)cc(O)c12 [APG, apigenin]	13.74
Oc1cc(O)cc(O)c1 [PG, phloroglucinol]	8339.90
O=C1C[C@@H](c2ccc(O)cc2)Oc2cc(O)cc(O)c21 [NAR, (+)-naringenin]	233.10
C[C@@H]1O[C@@H](O[C@H]2[C@H](Oc3cc(O)c4c(c3)O[C@H](c3ccc(O)cc3)CC4=O)O[C@H](CO)[C@@H](O)[C@@H]2O)[C@H](O)[C@H](O)[C@H]1O [NARN, naringin]	351.21

* * *

test: In vitro simulated gastrointestinal digestion (SGD, INFOGEST 2.0): concentration and bioaccessibility by UHPLC-DAD-MSn; conditions: samples; initial ethanol:water (15% v/v) solution
Outcome: Met for Concentration, initial solution (IS) of at least 300 µg/mL; Not met for anything lower.

compound	classification
O=c1c(O)c(-c2ccc(O)c(O)c2)oc2cc(O)cc(O)c12	Not met
Oc1cc(O)cc(O)c1	Met
O=C1C[C@@H](c2ccc(O)cc2)Oc2cc(O)cc(O)c21 [NAR, (+)-naringenin]	Met
C[C@@H]1O[C@@H](O[C@H]2[C@H](Oc3cc(O)c4c(c3)O[C@H](c3ccc(O)cc3)CC4=O)O[C@H](CO)[C@@H](O)[C@@H]2O)[C@H](O)[C@H](O)[C@H]1O	Not met
C[C@@H]1O[C@@H](OC[C@H]2O[C@@H](Oc3c(-c4ccc(O)c(O)c4)oc4cc(O)cc(O)c4c3=O)[C@H](O)[C@@H](O)[C@@H]2O)[C@H](O)[C@H](O)[C@H]1O	Met
O=C(O[C@@H]1Cc2c(O)cc(O)cc2O[C@@H]1c1cc(O)c(O)c(O)c1)c1cc(O)c(O)c(O)c1 [EGCG, epigallocatechin-3-O-gallate]	Met
O=c1c(-c2ccc(O)cc2)coc2cc(O)ccc12	Not met
O=c1cc(-c2ccc(O)cc2)oc2cc(O)cc(O)c12	Not met
O=C(CCc1ccc(O)cc1)c1c(O)cc(O)cc1O	Not met

* * *

The entries below come with measured Bioaccessibility (%), initial solution (IS) values attached.
assay: In vitro simulated gastrointestinal digestion (SGD, INFOGEST 2.0): concentration and bioaccessibility by UHPLC-DAD-MSn; settings: controls (without enzymes); initial solution, reference
property_measured: Bioaccessibility (%), initial solution (IS)

compound	unit_label	val
O=C1C[C@@H](c2ccc(O)cc2)Oc2cc(O)cc(O)c21 [NAR, (+)-naringenin]	%	100
O=c1c(O)c(-c2ccc(O)c(O)c2)oc2cc(O)cc(O)c12 [QUE, quercetin]	%	100

* * *

experiment: In vitro simulated gastrointestinal digestion (SGD, INFOGEST 2.0): concentration and bioaccessibility by UHPLC-DAD-MSn; conditions: controls (without enzymes); initial solution, reference
Marks after values point to notes of the source that are not given here.
property_measured: Bioaccessibility (%), initial solution (IS)

>>> df
                                   molecule       val
0  C[C@@H]1O[C@@H](O[C@H]2[C@H](Oc3cc(O)c4c(c3)O[C@H](c3ccc(O)cc3)CC4=O)O[C@H](CO)[C@@H](O)[C@@H]2O)[C@H](O)[C@H](O)[C@H]1O  100 ^a %
1      O=c1cc(-c2ccc(O)cc2)oc2cc(O)cc(O)c12  100 ^c %
2  O=C(O[C@@H]1Cc2c(O)cc(O)cc2O[C@@H]1c1cc(O)c(O)c(O)c1)c1cc(O)c(O)c(O)c1 [EGCG, epigallocatechin-3-O-gallate]  100^ a %
